- Assay Target: MAGE-A11:PCF11 interaction (GST-MAGE-A11 and FAM-PCF11_4) (Homo sapiens, UniProt P43364)
- Construct: GST-MAGE-A11 MHD (human MAGE-A11 MHD amino acid 218-429); made in house; host or cells: E. coli BL21(DE3)
- Sequence (P43364 218-429): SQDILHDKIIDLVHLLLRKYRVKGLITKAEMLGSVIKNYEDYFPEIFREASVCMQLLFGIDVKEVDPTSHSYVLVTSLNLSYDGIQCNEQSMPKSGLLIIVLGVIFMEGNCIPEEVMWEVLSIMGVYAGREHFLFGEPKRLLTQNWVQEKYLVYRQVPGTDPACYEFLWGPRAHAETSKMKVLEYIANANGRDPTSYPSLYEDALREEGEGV
- Assay Procedure: TR-FRET primary / single point screen at 15 µM
- Format: binding
- Test Parameters: single point TR-FRET screening of quinoline compounds against MAGE-A11:PCF11; 15 µM
Measured Property: percent inhibition (TR-FRET)
One number for each entry.

Check out these entries, answers already filled in.
Structure String | percent inhibition (TR-FRET)
CCCN(CCCNc1ccnc2cc(C(F)(F)F)ccc12)Cc1ccc(OC(F)(F)F)cc1 | 17.3802
COc1ccc(F)c(CN(CCCNc2ccnc3cc(Cl)ccc23)Cc2ccccc2)c1 | 4.762
CCCN(CCCNc1ccnc2cc(C(F)(F)F)ccc12)Cc1c(C)cc(C)cc1C | 19.9321

Now look at this entry.
Item under review: CCCN(CCCNc1c2ccc(Cl)cc2nc2ccc(OC)cc12)Cc1cc(F)cc(F)c1O . Reported percent inhibition (TR-FRET)?
2.045

Data origin: paper PMC7529893
